- Test system: multiple myeloma U266 cell line
- measurement_protocol: Cell viability (MTT) assay on U266
- Type: cell-based
- recorded_conditions: Homo sapiens, U-266, U266, 48 h
pIC50: −log10 of the molar value.
reported_endpoint: pIC50

compound | pIC50
COc1cccc2c1C(=O)c1c(O)c3c(c(O)c1C2=O)C[C@@](O)(C(=O)CO)C[C@@H]3O[C@H]1C[C@H](N)[C@H](O)[C@H](C)O1 [Doxorubicin, doxorubicin, reference compound] | 6.62

[I] CC(C)C[C@H](NC(=O)[C@H](Cc1ccccc1)NC(=O)c1cnccn1)B(O)O [bortezomib, reference compound]
[II] C=C[C@]1(C)CC[C@@H]2C(=C[C@H]3OC(=O)[C@]4(C)[C@H]3[C@]23CC[C@]4(O)OC3)C1
Problem: Which of the two gives a bigger number for pIC50: I or II ? Your answer should be the label attached to the chosen record.
Result: I
(I: 8.10, II: 5.29)

The values you see were collected from paper PMC9564300.
